Molecular target: Recombinant human MASP2 enzyme (fragment corresponding to amino acids 297-686, C-terminal His Tag) (human, UniProt O00187 297-686)
Sequence (O00187 other isoform, or with tags, fused parts or gaps limits assumed): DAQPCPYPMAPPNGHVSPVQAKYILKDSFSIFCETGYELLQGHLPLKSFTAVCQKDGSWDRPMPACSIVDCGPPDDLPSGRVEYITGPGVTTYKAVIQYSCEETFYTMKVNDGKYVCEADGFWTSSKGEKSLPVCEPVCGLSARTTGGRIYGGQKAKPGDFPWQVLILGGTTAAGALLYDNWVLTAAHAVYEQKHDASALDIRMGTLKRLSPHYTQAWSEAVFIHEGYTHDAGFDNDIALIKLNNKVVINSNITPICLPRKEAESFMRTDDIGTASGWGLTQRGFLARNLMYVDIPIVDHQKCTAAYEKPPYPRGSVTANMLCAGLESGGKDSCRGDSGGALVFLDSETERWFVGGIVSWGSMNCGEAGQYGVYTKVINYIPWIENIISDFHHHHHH
Test: cell-based or functional assay
Bridge positions count the residues as written; N and C are the ends. Square brackets hold non-standard residues; d marks the D form. Ends that are not written are not given here. Oic = O=C(O)[C@@H]1C[C@@H]2CCCC[C@@H]2N1; Gly(cBu) = N[C@H](C(=O)O)C1CCC1; Pen = CC(C)(S)[C@H](N)C(=O)O; Sar = CNCC(=O)O
The binders listed here are annotated with their human MASP2 IC50.
Endpoint Label: human MASP2 IC50

{"Binder": "ICSRSLP[Oic]I[Pen]IP-OH (disulfide 2-10; N-terminus assumed; SMILES CC[C@H](C)[C@H](N)C(=O)N[C@H]1CSSC(C)(C)[C@@H](C(=O)N[C@H](C(=O)N2CCC[C@H]2C(=O)O)[C@@H](C)CC)NC(=O)[C@H]([C@@H](C)CC)NC(=O)[C@@H]2C[C@@H]3CCCC[C@@H]3N2C(=O)[C@@H]2CCCN2C(=O)[C@H](CC(C)C)NC(=O)[C@H](CO)NC(=O)[C@H](CCCNC(=N)N)NC(=O)[C@H](CO)NC1=O) [IC+SRSLP-(Oic)-I-(Pen)+IP-OH]", "Result": "1.2 µM"}
{"Binder": "[Sar]ICSRSLP[Oic]I[Pen]IPE-NH2 (disulfide 3-11; N-terminus assumed; SMILES CC[C@H](C)[C@H](NC(=O)CNC)C(=O)N[C@H]1CSSC(C)(C)[C@@H](C(=O)N[C@H](C(=O)N2CCC[C@H]2C(=O)N[C@@H](CCC(=O)O)C(N)=O)[C@@H](C)CC)NC(=O)[C@H]([C@@H](C)CC)NC(=O)[C@@H]2C[C@@H]3CCCC[C@@H]3N2C(=O)[C@@H]2CCCN2C(=O)[C@H](CC(C)C)NC(=O)[C@H](CO)NC(=O)[C@H](CCCNC(=N)N)NC(=O)[C@H](CO)NC1=O) [((N-Me)G)-IC+SRSLP-(Oic)-I-(Pen)+IPE-NH2]", "Result": "0.2 µM"}
{"Binder": "[dA]ICSRSLP[Oic]I[Pen]IPE-OH (disulfide 3-11; N-terminus assumed; SMILES CC[C@H](C)[C@H](NC(=O)[C@@H](C)N)C(=O)N[C@H]1CSSC(C)(C)[C@@H](C(=O)N[C@H](C(=O)N2CCC[C@H]2C(=O)N[C@@H](CCC(=O)O)C(=O)O)[C@@H](C)CC)NC(=O)[C@H]([C@@H](C)CC)NC(=O)[C@@H]2C[C@@H]3CCCC[C@@H]3N2C(=O)[C@@H]2CCCN2C(=O)[C@H](CC(C)C)NC(=O)[C@H](CO)NC(=O)[C@H](CCCNC(=N)N)NC(=O)[C@H](CO)NC1=O) [aIC+SRSLP-(Oic)-I-(Pen)+IPE-OH]", "Result": "0.1 µM"}
{"Binder": "AICSRSLPPIC[Gly(cBu)]PD-NH2 (disulfide 3-11; N-terminus assumed; SMILES CC[C@H](C)[C@H](NC(=O)[C@H](C)N)C(=O)N[C@H]1CSSC[C@@H](C(=O)N[C@H](C(=O)N2CCC[C@H]2C(=O)N[C@@H](CC(=O)O)C(N)=O)C2CCC2)NC(=O)[C@H]([C@@H](C)CC)NC(=O)[C@@H]2CCCN2C(=O)[C@@H]2CCCN2C(=O)[C@H](CC(C)C)NC(=O)[C@H](CO)NC(=O)[C@H](CCCNC(=N)N)NC(=O)[C@H](CO)NC1=O) [AIC+SRSLPPIC+(Cbg)-PD-NH2]", "Result": "0.41 µM"}

Every entry's value here was drawn from patent US20210246166A1.
